system: KM12 colon; experiment: NCI tumour cell line growth inhibition, 48 h
Lab note: compare TGI against 20 µM. Equal or greater, write fulfilled. Smaller, write not fulfilled.

- Compound: "COCCOCCOCCOCCOc1ccc2c(c1)C(=O)c1nc3ncccc3c(=O)n1-2"
  Class assignment: "not fulfilled"
- Compound: "O=C(/C=C/c1cccs1)Nc1ncc(Cc2ccccc2F)s1"
  Class assignment: "fulfilled"
- Compound: "CCNC1=CC(=O)c2ncccc2C1=O"
  Class assignment: "not fulfilled"

Could you verify whether the entry COC(=N)/C(=C1\OC(N)=C(c2ccc(Cl)cc2)C1=O)c1ccc(Cl)cc1 shows TGI of no less than 20 µM? fulfilled

Given O=c1c2cc(Cl)ccc2n2nnc3ccc(NCCNCCO)c1c32 , state whether its TGI is at least 20 µM. not fulfilled

Does TGI meet or surpass 20 µM for CCCCC[C@@H]1OC(=O)[C@@]2(CC3c4ccccc4C2c2ccccc23)[C@H]1C(=O)OC ? fulfilled

Please indicate if the recorded TGI for CC(C)(CN1CCCCC1)C(=O)CC(SCCS(=O)(=O)O)c1ccc(Cl)c(Cl)c1 (stereo not given) meets or exceeds 20 µM. fulfilled

Exam item: decide whether the reported TGI for CCCNC(=O)Cn1c(-c2ccccc2)cc2ccccc21 is at least 20 µM. fulfilled

Confirm if TGI reported for the compound O=C(O)c1c(Cl)c(Cl)c(Cl)c(Cl)c1-c1c2cc(I)c(=O)c(I)c-2oc2c(I)c(O)c(I)cc12 is 20 µM or above. fulfilled

Is TGI for NC(=O)Nc1n[nH]c(-c2ccccc2)n1 at or above 20 µM? fulfilled

hey, is TGI for this one >= 20 µM? NC(Cc1ccccc1)C(=O)O (stereo not given) fulfilled

Given the entry C=C1C(=O)O[C@H]2[C@@H](O)[C@H](C)CCC/C(C)=C/CC[C@@]3(C)O[C@@H]3C[C@@H]12 , answer whether its TGI meets or surpasses 20 µM. fulfilled

Answer whether TGI of COc1cc(SC)ccc1C(=O)N1CCCC(C)C1 (stereo not given) is greater than or equal to 20 µM. fulfilled

Check the entry Cc1ccc(S(=O)(=O)ON=C2CC(c3ccccc3)N(C)C(c3ccccc3)C2)cc1 (stereo not given) : does TGI equal or exceed 20 µM? fulfilled

Please tell me: is the compound OCC1CC2CC1C1(C2)OCCO1 (stereo not given) at or over 20 µM in terms of TGI? fulfilled

Does the compound CN(NC(=O)/C(=C/C=C/c1ccccc1)NC(=O)c1ccccc1)C1=C(Cl)C(=O)[N+](c2ccccc2)=CC1 have recorded TGI that is 20 µM or more? fulfilled

Data origin: PubChem BioAssay (NCI)
